Recorded values, source ChEMBL document CHEMBL3507680.

# measurement-protocol: Human HepG2 cell viability dose-response assay
# Assay type: toxicity, cell-based
measured-property: TOP
Quick one: just the number, no unit, thanks!

Illustrative cases are given below, each with its answer.
In [3]: df
Out[3]:
                                   compound  observed_result
0  C/N=C1\c2cc3cc(OC)ccc3n2CCN1Cc1ccccc1.O=C(O)C(F)(F)F              100
1  CCCn1ncc(-c2ccnc(NC3CC(C)(C)NC(C)(C)C3)n2)c1C                0
2    CCC(=O)Nc1ccc2c(c1)CN(C(=O)c1ccco1)CC2                0
3  Cc1nc(CN2CCCC(N(C)Cc3cnn(C)c3)C2)no1 (stereo unspecified)                0
4  CN1CCC(c2n[nH]c3ncccc23)C1.O=CO (stereo unspecified)              100

Now look at this entry.
Challenge: Look up and report measured TOP for this entry: CC(O)CN1CCC(CNCc2c[nH]nc2C(C)(C)C)CC1 (stereo unspecified)
Response given: 0
